Where these numbers come from: paper PMC7567097

Experiment: Cytotoxicity assay (CCK-8, 72 h) in Vero E6 cells
Format: cell-based, African green monkey
Conditions: African green monkey, Vero E6 cells, Vero; Concentration 0.0411523; two replicates; read-out: cell viability (% of DMSO control)
measureName: viability at 72 h (%)
// note: answer is a bare numeric in %

Reported viability at 72 h of CCC(CC)COC(=O)[C@H](C)N[P@](=O)(OC[C@H]1O[C@@](C#N)(c2ccc3c(N)ncnn23)[C@H](O)[C@@H]1O)Oc1ccccc1 [Remdesivir] : 104

---

Assay: in vitro
Details: human, cell viability (% of DMSO control), Concentration 1.11111
measureName: viability (%)
// note: answer is a bare numeric in %

Reported viability of `CCC(CC)COC(=O)[C@H](C)N[P@](=O)(OC[C@H]1O[C@@](C#N)(c2ccc3c(N)ncnn23)[C@H](O)[C@@H]1O)Oc1ccccc1` : 100

Reported viability of CCN(CC)CCCC(C)Nc1ccnc2cc(Cl)ccc12 (centres unmarked) : 104

---

Test system: SARS-CoV-2-Nluc
Assay: microbe, parasite or virus in culture
Type: cell-based
Conditions: Severe acute respiratory syndrome coronavirus 2, read-out: EC50 (µM) Replicate 1
measureName: EC50

Reported EC50 of `NC(=O)c1ncn([C@@H]2O[C@H](CO)[C@@H](O)[C@H]2O)n1` : > 10 µM

Reported EC50 of `Nc1ccn(C[C@@H](CO)OCP(=O)(O)O)c(=O)n1` : > 10 µM

Reported EC50 of `NC(=O)c1nc(F)c[nH]c1=O` : > 10 µM

Reported EC50 of `Cc1c(O)cccc1C(=O)N[C@@H](CSc1ccccc1)[C@H](O)CN1C[C@H]2CCCC[C@H]2C[C@H]1C(=O)NC(C)(C)C` : 0.542 µM

Reported EC50 of `O=C1c2c(O)c(=O)ccn2N([C@@H]2c3ccccc3SCc3c2ccc(F)c3F)[C@@H]2COCCN12` : > 10 µM

Reported EC50 of `CCC[C@@]1(CCc2ccccc2)CC(O)=C([C@H](CC)c2cccc(NS(=O)(=O)c3ccc(C(F)(F)F)cn3)c2)C(=O)O1` : 8.53 µM

Reported EC50 of `CC(C)c1nc(CN(C)C(=O)N[C@H](C(=O)N[C@@H](Cc2ccccc2)C[C@H](O)[C@H](Cc2ccccc2)NC(=O)OCc2cncs2)C(C)C)cs1` : > 10 µM

Reported EC50 of `Cc1cc(/C=C/C#N)cc(C)c1Nc1ccnc(Nc2ccc(C#N)cc2)n1` : 7.06 µM

Reported EC50 of `C=C1[C@H](CO)[C@@H](O)C[C@@H]1n1cnc2c(=O)[nH]c(N)nc21` : > 10 µM

Reported EC50 of `Nc1ccn([C@@H]2O[C@@](CO)(CCl)[C@@H](O)[C@H]2F)c(=O)n1` : > 10 µM

Reported EC50 of `O=C1Nc2ccc(Cl)cc2[C@@](C#CC2CC2)(C(F)(F)F)O1` : 9.6 µM

Reported EC50 of `CC(C)CN(C[C@@H](O)[C@H](Cc1ccccc1)NC(=O)O[C@H]1CO[C@H]2OCC[C@H]21)S(=O)(=O)c1ccc(N)cc1` : > 10 µM

Reported EC50 of `CC(C)(C)NC(=O)[C@@H]1C[C@@H]2CCCC[C@@H]2CN1C[C@@H](O)[C@H](Cc1ccccc1)NC(=O)[C@H](CC(N)=O)NC(=O)c1ccc2ccccc2n1` : 8.73 µM

Reported EC50 of `CC(C)OC(=O)[C@H](C)N[P@](=O)(OC[C@H]1O[C@@H](n2ccc(=O)[nH]c2=O)[C@](C)(F)[C@@H]1O)Oc1ccccc1` : > 10 µM

Reported EC50 of `Cc1cccc(C)c1OCC(=O)N[C@@H](Cc1ccccc1)[C@@H](O)C[C@H](Cc1ccccc1)NC(=O)[C@H](C(C)C)N1CCCNC1=O` : 9.3 µM

Reported EC50 of `CC#CC(=O)N1CC[C@@H](n2c(=O)n(-c3ccc(Oc4ccccc4)cc3)c3c(N)ncnc32)C1` : > 10 µM

Reported EC50 of CC(C)OC(=O)[C@H](C)N[P@](=O)(CO[C@H](C)Cn1cnc2c(N)ncnc21)Oc1ccccc1 [Tenofovir alafenamide (TAF), Tenofovir alafenamide] : > 10 µM

Reported EC50 of CC(C)c1nc(CN(C)C(=O)N[C@@H](CCN2CCOCC2)C(=O)N[C@H](CC[C@H](Cc2ccccc2)NC(=O)OCc2cncs2)Cc2ccccc2)cs1 [Cobicistat] : 2.6 µM

Reported EC50 of `CC(C)OC(=O)[C@H](C)N[P@](=O)(OC[C@H]1O[C@@](C#N)(c2ccc3c(N)ncnn23)[C@](C)(O)[C@@H]1OC(=O)C(C)C)Oc1ccccc1` : > 10 µM

Reported EC50 of `CCOC(=O)/C=C/[C@H](C[C@@H]1CCNC1=O)NC(=O)[C@@H](CC(=O)[C@@H](NC(=O)c1cc(C)on1)C(C)C)Cc1ccc(F)cc1` : 1.53 µM

Reported EC50 of `COC(=O)N[C@H](C(=O)N1CC2(CC2)C[C@H]1c1ncc(-c2ccc3c(c2)C(F)(F)c2cc(-c4ccc5nc([C@@H]6[C@H]7CC[C@H](C7)N6C(=O)[C@@H](NC(=O)OC)C(C)C)[nH]c5c4)ccc2-3)[nH]1)C(C)C` : > 10 µM

Reported EC50 of `N#C[C@@]1(c2ccc3c(N)ncnn23)O[C@H](CO)[C@@H](O)[C@H]1O` : 1.07 µM

Reported EC50 of `COC(=O)N[C@H](C(=O)N[C@@H](Cc1ccccc1)[C@@H](O)CN(Cc1ccc(-c2ccccn2)cc1)NC(=O)[C@@H](NC(=O)OC)C(C)(C)C)C(C)(C)C` : > 10 µM

Reported EC50 of `CC(C)CN(C[C@@H](O)[C@H](Cc1ccccc1)NC(=O)O[C@H]1CCOC1)S(=O)(=O)c1ccc(N)cc1` : > 10 µM
